- ASSAYED_SYSTEM: Neuronal acetylcholine receptor; alpha3/beta4 (Homo sapiens, UniProt P30926+P32297)
- Sequence (P30926 whole entry): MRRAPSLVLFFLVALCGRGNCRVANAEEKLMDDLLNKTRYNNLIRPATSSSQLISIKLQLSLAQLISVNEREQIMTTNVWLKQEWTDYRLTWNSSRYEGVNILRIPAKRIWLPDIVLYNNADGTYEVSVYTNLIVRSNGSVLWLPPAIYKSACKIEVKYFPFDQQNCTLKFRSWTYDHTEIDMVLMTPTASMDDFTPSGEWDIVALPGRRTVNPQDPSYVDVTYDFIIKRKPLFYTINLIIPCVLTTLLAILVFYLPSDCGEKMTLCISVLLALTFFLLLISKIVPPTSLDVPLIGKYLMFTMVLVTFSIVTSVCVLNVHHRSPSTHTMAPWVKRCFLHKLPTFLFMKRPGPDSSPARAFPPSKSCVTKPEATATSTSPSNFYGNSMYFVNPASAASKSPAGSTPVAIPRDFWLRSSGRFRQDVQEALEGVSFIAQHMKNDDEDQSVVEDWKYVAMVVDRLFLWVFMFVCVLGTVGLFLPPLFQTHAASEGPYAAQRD
- Sequence (P32297 whole entry): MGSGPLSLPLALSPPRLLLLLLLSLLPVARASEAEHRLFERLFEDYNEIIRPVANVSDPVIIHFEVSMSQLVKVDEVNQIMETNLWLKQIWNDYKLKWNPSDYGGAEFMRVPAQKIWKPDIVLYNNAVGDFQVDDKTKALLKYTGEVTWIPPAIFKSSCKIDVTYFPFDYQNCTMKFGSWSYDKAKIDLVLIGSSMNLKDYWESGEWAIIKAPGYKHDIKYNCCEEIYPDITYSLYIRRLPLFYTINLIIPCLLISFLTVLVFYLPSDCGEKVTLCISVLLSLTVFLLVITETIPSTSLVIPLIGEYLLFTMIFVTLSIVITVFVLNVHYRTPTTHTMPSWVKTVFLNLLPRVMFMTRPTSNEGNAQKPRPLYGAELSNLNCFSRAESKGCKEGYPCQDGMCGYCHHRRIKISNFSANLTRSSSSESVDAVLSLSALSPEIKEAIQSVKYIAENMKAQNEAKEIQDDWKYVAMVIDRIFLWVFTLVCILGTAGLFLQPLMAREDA
- TEST_NAME: Agonist activity at alpha3beta4 nAChR expressed in HEK293 cells by FLIPR membrane potential assay
- Format: functional, cell-based
- MEASUREMENT_CONDITIONS: read-out: pEC50 (converted)
Parameter: EC50. Scope: all listed entries.
Could you give me the number in mM? Just the number is fine.

Some compounds with known EC50 results, for comparison:
{"columns": ["COMPOUND", "MEASUREMENT_UNITS", "ENDPOINT_RESULT"],
 "data": [
  ["CN(C)C(=O)OCCC(c1ccccc1)N(C)C (stereo not given)", "mM", 1],
  ["CC(CCOC(=O)N(C)c1ccc(Cl)cc1)N(C)C (stereo not given)", "mM", 0.0316],
  ["CC(CCOC(=O)N(C)c1ccc(C#N)cc1)N(C)C (stereo not given)", "mM", 1]
]}

Summary for this compound, CN(C)C(=O)OCCC(c1ccsc1)N(C)C (stereo not given) : EC50 is 1

EC50 reading for CC(CCOC(=O)NCCCc1ccccc1)N(C)C (stereo not given) : 1

====

- ASSAYED_SYSTEM: Neuronal acetylcholine receptor subunit alpha-7 (Homo sapiens)
- Sequence (P36544 23-502 limits assumed): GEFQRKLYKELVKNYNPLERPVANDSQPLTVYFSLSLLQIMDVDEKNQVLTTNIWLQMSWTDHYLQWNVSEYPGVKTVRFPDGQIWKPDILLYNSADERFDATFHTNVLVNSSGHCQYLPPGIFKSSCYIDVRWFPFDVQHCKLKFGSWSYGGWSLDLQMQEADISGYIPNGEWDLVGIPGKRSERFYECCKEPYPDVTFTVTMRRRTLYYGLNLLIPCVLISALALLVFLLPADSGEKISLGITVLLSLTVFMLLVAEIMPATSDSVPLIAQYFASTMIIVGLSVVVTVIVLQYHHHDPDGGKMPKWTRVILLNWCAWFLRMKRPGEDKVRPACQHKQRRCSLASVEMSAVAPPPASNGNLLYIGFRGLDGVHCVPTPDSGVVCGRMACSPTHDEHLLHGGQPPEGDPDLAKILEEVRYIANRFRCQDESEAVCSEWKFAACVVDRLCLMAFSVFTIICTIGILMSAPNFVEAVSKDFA
- TEST_NAME: Displacement of [3H]MLA from alpha7 nAChR/5HT3A receptor expressed in HEK293 cells
- Assay type: cell-based
# maps each entry to its pKi
# output: bare number, no unit

Worked cases, answers included:
{"columns": ["COMPOUND", "ASSAYED_SYSTEM", "pKi"],
 "data": [
  ["CN(C)C(=O)OCCC(c1ccccc1)N(C)C (stereo unspecified)", "Neuronal acetylcholine receptor subunit alpha-7 (Homo sapiens)", 3],
  ["CC(CCOC(=O)N(C)c1ccc(C#N)cc1)N(C)C (stereo unspecified)", "Neuronal acetylcholine receptor subunit alpha-7 (Homo sapiens)", 3],
  ["CC(CCOC(=O)N(C)Cc1ccccc1)N(C)C (stereo unspecified)", "Neuronal acetylcholine receptor subunit alpha-7 (Homo sapiens)", 3]
]}

What the record says about CC(CCOC(=O)N(C)c1ccc(Cl)cc1)N(C)C (stereo unspecified) : pKi is 3

In plain terms, CC(CCOC(=O)N(C)c1ccccc1)N(C)C (stereo unspecified) has a documented pKi of 3

For CN(C)C(=O)OCCC(c1ccsc1)N(C)C (stereo unspecified) the compound record lists pKi as 3

====

- ASSAYED_SYSTEM: Neuronal acetylcholine receptor; alpha3/beta4 (Homo sapiens, UniProt P30926+P32297)
- TEST_NAME: Agonist activity at alpha3beta4 nAChR expressed in HEK293 cells by FLIPR membrane potential assay
- Assay type: functional, cell-based
- MEASUREMENT_CONDITIONS: read-out: EC50
ENDPOINT: log10(EC50) (log10 of the value in µM)
Response schema: value (number) is log10 of EC50 in units of µM.

These solved cases illustrate the format of a correct answer.
{"columns": ["COMPOUND", "ENDPOINT_RESULT"],
 "data": [
  ["CC(C/C=C/C(=O)N(C)C)N(C)C (stereo not given)", 1.96],
  ["CC(CCOC(N)=O)N(C)C (stereo not given)", 1.76]
]}

Measured log10(EC50) of CC(CCSC(=O)N(C)C)N(C)C (stereo not given) : 2.63

The compound CC(CCOC(=O)N(C)Cc1ccccc1)N(C)C (stereo not given) showed log10(EC50) equal to 0.83

Lab book: log10(EC50) of CCCNC(=O)OCCC(C)N(C)C (stereo not given) noted as 1.98

In plain terms, CC(CCCC(=O)N(C)C)N(C)C (stereo not given) has a documented log10(EC50) of 3.00

====

The reader will find reported pEC50 values listed item by item below.
- ASSAYED_SYSTEM: Neuronal acetylcholine receptor; alpha3/beta4 (Homo sapiens, UniProt P30926+P32297)
- TEST_NAME: Agonist activity at alpha3beta4 nAChR expressed in HEK293 cells by FLIPR membrane potential assay
- Assay type: functional, cell-based
- MEASUREMENT_CONDITIONS: read-out: EC50
The scale used: pEC50 is minus the common logarithm of the concentration in molar units.

Some solved entries appear below for comparison.
{"columns": ["COMPOUND", "ASSAYED_SYSTEM", "pEC50"],
 "data": [
  ["CC(CCOC(=O)N(C)c1ccccc1)N(C)C (centres undefined)", "Neuronal acetylcholine receptor; alpha3/beta4 (Homo sapiens, UniProt P30926+P32297)", 4.29],
  ["CC(CCOC(=O)NCCO)N(C)C (centres undefined)", "Neuronal acetylcholine receptor; alpha3/beta4 (Homo sapiens, UniProt P30926+P32297)", 3.52]
]}

For this compound ( CC(CCOC(=O)N(C)CCO)N(C)C (centres undefined) ), measured pEC50 is 3.80

Recorded result, CCNC(=O)OCCC(C)N(C)C (centres undefined) , pEC50: 4.26

Entry CNC(=O)/C=C/CC(C)N(C)C (centres undefined) — recorded pEC50 = 3.82

// sample CC(CCOC(=O)N(C)c1ccc(Cl)cc1)N(C)C (centres undefined) , its pEC50 was 4.55

In plain terms, CC(CCOC(=S)N(C)C)N(C)C (centres undefined) has a documented pEC50 of 4.28

====

Here the recorded EC50 is given for each entry.
- ASSAYED_SYSTEM: Neuronal acetylcholine receptor; alpha3/beta4 (Homo sapiens, UniProt P30926+P32297)
- TEST_NAME: Agonist activity at alpha3beta4 nAChR expressed in HEK293 cells by FLIPR membrane potential assay
- Assay type: functional, cell-based
- MEASUREMENT_CONDITIONS: read-out: EC50

Worked cases, EC50 given:
{"columns": ["COMPOUND", "EC50"],
 "data": [
  ["CN(C)C(=O)OCCC(CO)N(C)C (configuration not stated)", "> 3 mM"],
  ["CC(CCOC(=O)N(C)c1ccc(C#N)cc1)N(C)C (configuration not stated)", "> 1 mM"],
  ["CC(CCNC(=O)Nc1ccccc1)N(C)C (configuration not stated)", "> 3 mM"],
  ["CN(C)C(=O)OCCC(c1ccccc1)N(C)C (configuration not stated)", "> 1 mM"],
  ["CN(C)C(=O)OCCC(c1ccsc1)N(C)C (configuration not stated)", "> 1 mM"],
  ["CC(CCNC(=O)N(C)C)N(C)C (configuration not stated)", "> 3 mM"]
]}

Would you kindly look at the next entry?
Consider CC(CCOC(=O)NCCCc1ccccc1)N(C)C (configuration not stated) . Its measured EC50 is > 1 mM
